ASSAY_TEXT: Solvation interaction parameters by inverse gas-liquid chromatography (Abraham solvation model)
Assay type: physicochemical
MEASUREMENT_CONDITIONS: 70° C.
Tick satisfied if r (interaction via nonbonding and π-electrons) is 0.1 or greater. Tick not satisfied if r (interaction via nonbonding and π-electrons) is less than 0.1.

**Query** Could you tell me if the measured r (interaction via nonbonding and π-electrons) of CCCCCCCCC[n+]1ccn(C)c1.O=S(=O)([N-]S(=O)(=O)C(F)(F)F)C(F)(F)F reaches 0.1 or more?
**Result** not satisfied

**Query** Also check O=S(=O)([N-]S(=O)(=O)C(F)(F)F)C(F)(F)F.O=S(=O)([N-]S(=O)(=O)C(F)(F)F)C(F)(F)F.c1ccc(Cn2cc[n+](CCCCCCCCCCCC[n+]3ccn(Cc4ccccc4)c3)c2)cc1
**Result** not satisfied

**Query** Field entry: C[N+]1(CCCCCCCCC[N+]2(C)CCCC2)CCCC1.O=S(=O)([N-]S(=O)(=O)C(F)(F)F)C(F)(F)F.O=S(=O)([N-]S(=O)(=O)C(F)(F)F)C(F)(F)F
**Result** satisfied

**Query** Try C[n+]1ccn(CCCCn2cc[n+](C)c2)c1.O=S(=O)([N-]S(=O)(=O)C(F)(F)F)C(F)(F)F.O=S(=O)([N-]S(=O)(=O)C(F)(F)F)C(F)(F)F next.
**Result** satisfied

**Query** Cn1cc[n+](CCCCCCCCC[n+]2ccn(C)c2)c1.O=S(=O)([N-]S(=O)(=O)C(F)(F)F)C(F)(F)F.O=S(=O)([N-]S(=O)(=O)C(F)(F)F)C(F)(F)F ?
**Result** satisfied

====

ASSAY_TEXT: Density (2.0 mL volumetric tube, weighing by difference)
Assay type: physicochemical
MEASUREMENT_CONDITIONS: 23° C.
Assign Density to each entry below.
Kindly answer with a numeric value in g/mL, unit omitted.

**Query** Endpoint output: Density of C=Cn1cc[n+](CCCCCCCCCCC[n+]2ccn(C=C)c2)c1.O=S(=O)([N-]S(=O)(=O)C(F)(F)F)C(F)(F)F.O=S(=O)([N-]S(=O)(=O)C(F)(F)F)C(F)(F)F . Value?
**Result** 1.44

**Query** Check C=Cn1cc[n+](CCCCCCCCC[n+]2ccn(C=C)c2)c1.O=S(=O)([N-]S(=O)(=O)C(F)(F)F)C(F)(F)F.O=S(=O)([N-]S(=O)(=O)C(F)(F)F)C(F)(F)F too.
**Result** 1.47

**Query** Also F[P-](F)(F)(F)(F)F.F[P-](F)(F)(F)(F)F.c1ccc(Cn2cc[n+](CCCCCCCCCCCC[n+]3ccn(Cc4ccccc4)c3)c2)cc1 , if possible.
**Result** 1.27

**Query** Similarly, Cn1cc[n+](CCCCCC[n+]2ccn(C)c2)c1.O=S(=O)([N-]S(=O)(=O)C(F)(F)F)C(F)(F)F.O=S(=O)([N-]S(=O)(=O)C(F)(F)F)C(F)(F)F ?
**Result** 1.52

**Query** Again, but for Cc1n(C)cc[n+]1CCCCCCCCC[n+]1ccn(C)c1C.O=S(=O)([N-]S(=O)(=O)C(F)(F)F)C(F)(F)F.O=S(=O)([N-]S(=O)(=O)C(F)(F)F)C(F)(F)F
**Result** 1.47

The measurements presented in this section are drawn from patent US8956445B2.
